Assay: Inhibitor binding assay of SEQ ID NO 3 variants, Inhibitor 1, in Model B detergent
Assay type: biochemical
Settings: in Model B relative to SEQ ID NO 3 comprising S173P + S175P + F180Y; relative Ki, IF>1.0 = lower Ki
Excerpt: Where E is the protease, I is the inhibitor and EI is the protease-inhibitor complex. […] The concentration of enzyme-inhibitor in the detergent solution is then given by: where Etot is the total protease concentration ([Etot]=[E]+[EI]), Itot is the total inhibitor concentration ([Itot]=[I]+[EI]), and Ki is the equilibrium binding constant for the reaction. The measured slopes V are given by: where V0 is the slope without inhibitor added. […]
endpoint: inhibitor 1 binding constant improvement factors (IF)
Respond with the number and no other words.

molecule	recorded-number
S114Q + S173P + S175P + F180Y: protease variant of SEQ ID NO 3 (protein, listed as Bacillus sp.) AVPSTQTPWGIKSIYNDQSITKTTGGSGIKVAVLDTGVYTSHLDLAGSAEQCKDFTQSNPLVDGSCTDRQGHGTHVAGTVLAHGGSNGQGVYGVAPQAKLWAYKVLGDNGSGYQDDIAAAIRHVADEASRTGSKVVINMSLGSSAKDSLIASAVDYAYGKGVLIVAAAGNSGPGPNTIGYPGGLVNAVAVAALENVQQNGTYRVADFSSRGNPATAGDYIIQERDIEVSAPGASVESTWYTGGYNTISGTSMATPHVAGLAAKIWSANTSLSHSQLRTELQNRAKVYDIKGGIGAGTGDDYASGFGYPRVK	2.03

Q: Look up inhibitor 1 binding constant improvement factors (IF): S173P + S175P + I178P + F180Y: protease variant of SEQ ID NO 3 (protein, listed as Bacillus sp.) AVPSTQTPWGIKSIYNDQSITKTTGGSGIKVAVLDTGVYTSHLDLAGSAEQCKDFTQSNPLVDGSCTDRQGHGTHVAGTVLAHGGSNGQGVYGVAPQAKLWAYKVLGDNGSGYSDDIAAAIRHVADEASRTGSKVVINMSLGSSAKDSLIASAVDYAYGKGVLIVAAAGNSGPGPNTPGYPGGLVNAVAVAALENVQQNGTYRVADFSSRGNPATAGDYIIQERDIEVSAPGASVESTWYTGGYNTISGTSMATPHVAGLAAKIWSANTSLSHSQLRTELQNRAKVYDIKGGIGAGTGDDYASGFGYPRVK
Result: 2.22

Q: Look up inhibitor 1 binding constant improvement factors (IF): K146W + S173P + S175P + F180Y: protease variant of SEQ ID NO 3 (protein, listed as Bacillus sp.) AVPSTQTPWGIKSIYNDQSITKTTGGSGIKVAVLDTGVYTSHLDLAGSAEQCKDFTQSNPLVDGSCTDRQGHGTHVAGTVLAHGGSNGQGVYGVAPQAKLWAYKVLGDNGSGYSDDIAAAIRHVADEASRTGSKVVINMSLGSSAWDSLIASAVDYAYGKGVLIVAAAGNSGPGPNTIGYPGGLVNAVAVAALENVQQNGTYRVADFSSRGNPATAGDYIIQERDIEVSAPGASVESTWYTGGYNTISGTSMATPHVAGLAAKIWSANTSLSHSQLRTELQNRAKVYDIKGGIGAGTGDDYASGFGYPRVK
Result: 5.47

Q: Look up inhibitor 1 binding constant improvement factors (IF): K146T + S173P + S175P + F180Y: protease variant of SEQ ID NO 3 (protein, listed as Bacillus sp.) AVPSTQTPWGIKSIYNDQSITKTTGGSGIKVAVLDTGVYTSHLDLAGSAEQCKDFTQSNPLVDGSCTDRQGHGTHVAGTVLAHGGSNGQGVYGVAPQAKLWAYKVLGDNGSGYSDDIAAAIRHVADEASRTGSKVVINMSLGSSATDSLIASAVDYAYGKGVLIVAAAGNSGPGPNTIGYPGGLVNAVAVAALENVQQNGTYRVADFSSRGNPATAGDYIIQERDIEVSAPGASVESTWYTGGYNTISGTSMATPHVAGLAAKIWSANTSLSHSQLRTELQNRAKVYDIKGGIGAGTGDDYASGFGYPRVK
Result: 15.91
